Record form. Attribute: kcat. Fill in for each entry.
Test system: Trametes versicolor

Below are some compounds; for each one, tell me its kcat.
1. O=Cc1cc(O)c(O)c(Cl)c1
2. COc1c(O)cc(O)c(Br)c1Cl
3. COc1cc(O)c(O)c(Cl)c1Br
4. Nc1cc(CO)ccc1O

Resp:
["31.7 s⁻¹", "96 s⁻¹", "89.7 s⁻¹", "63 s⁻¹"]

Please give kcat, item by item, for the list that follows.
1. Oc1ccc(O)cc1 [HYDROQUINONE]
2. Nc1ccccc1N
3. Nc1ccc(C(=O)O)cc1O
4. Nc1cc(C(=O)O)ccc1O

Resp:
1. 119 s⁻¹
2. 17.3 s⁻¹
3. 42.5 s⁻¹
4. 48.8 s⁻¹

----------
Test system: Trametes versicolor
# Km binned as bottom range (below 70 µM), center range (70 µM to below 200 µM), top range (200 µM or more)

[[record]]
compound = "Cc1ccc(O)c(N)c1"
group = "center range"


Please turn your attention to the following entry.
Req: Would you mind sorting COc1cc(O)c(O)c(Cl)c1Br into the appropriate category?
Resp: bottom range

----------
Test system: Trametes versicolor
Can you tell me kcat for the items I'm about to list?
One number for each entry, in s⁻¹.

Could I get kcat for every one of these entries?
1. Cc1ccc(O)c(N)c1
2. Oc1ccccc1O

Resp:
[131, 33.5]

Fill in kcat for each of the 4 compounds listed.
1. COc1cc(C=O)cc(Cl)c1O
2. Oc1cc(O)c(Br)c(Cl)c1O
3. Nc1ccccc1O
4. COc1cc(O)c(Br)c(Cl)c1O

Resp:
1: 105; 2: 145; 3: 37.5; 4: 18.3

----------
So I've got kcat/Km readings for Trametes versicolor, take a look.
One number for each entry, in M⁻¹ s⁻¹.

Answered cases to consult:
[[record]]
compound = "Nc1ccccc1O"
test_system = "Trametes versicolor"
endpoint_unit = "M⁻¹ s⁻¹"
numeric_value = 197000

[[record]]
compound = "COc1c(O)cc(O)c(Br)c1Cl"
test_system = "Trametes versicolor"
endpoint_unit = "M⁻¹ s⁻¹"
numeric_value = "1.37e+06"

[[record]]
compound = "COc1cc(O)c(Br)c(Cl)c1O"
test_system = "Trametes versicolor"
endpoint_unit = "M⁻¹ s⁻¹"
numeric_value = 262000

[[record]]
compound = "Nc1ccc(C(=O)O)cc1O"
test_system = "Trametes versicolor"
endpoint_unit = "M⁻¹ s⁻¹"
numeric_value = 250000

[[record]]
compound = "Cc1ccc(O)c(N)c1"
test_system = "Trametes versicolor"
endpoint_unit = "M⁻¹ s⁻¹"
numeric_value = "1.19e+06"

[[record]]
compound = "COc1cc(O)c(O)c(Cl)c1Br"
test_system = "Trametes versicolor"
endpoint_unit = "M⁻¹ s⁻¹"
numeric_value = "2.24e+06"


Please supply kcat/Km for each of the following items, keeping them in order.
1. O=Cc1cc(O)c(O)c(Cl)c1
2. Nc1cc(C(=O)O)ccc1O
3. Nc1cc(CO)ccc1O
4. Nc1ccccc1N

Resp:
1. 792000
2. 698000
3. 788000
4. 40300

Look up kcat/Km for the entries below, preserving their order.
1. Oc1cc(O)c(Br)c(Cl)c1O
2. Oc1ccccc1O
3. Oc1ccc(O)cc1 [HYDROQUINONE]
4. COc1cc(C=O)cc(Cl)c1O

Resp:
1: 2.89e+06; 2: 55800; 3: 594; 4: 47800

----------
Test system: Trametes versicolor
Classify on Km using Low: < 70 µM; Medium: ≥ 70 µM and < 200 µM; High: ≥ 200 µM

[[record]]
molecule = "Nc1ccccc1O"
test_system = "Trametes versicolor"
group = "Medium"

[[record]]
molecule = "Nc1ccc(C(=O)O)cc1O"
test_system = "Trametes versicolor"
group = "Medium"

[[record]]
molecule = "Oc1ccc(O)cc1 [HYDROQUINONE]"
test_system = "Trametes versicolor"
group = "Low"

[[record]]
molecule = "Oc1ccccc1O"
test_system = "Trametes versicolor"
group = "High"

[[record]]
molecule = "Nc1cc(CO)ccc1O"
test_system = "Trametes versicolor"
group = "Medium"


Req: Note: place this molecule into its band. Item: COc1cc(C=O)cc(Cl)c1O
Resp: High

Req: For the record Oc1cc(O)c(Br)c(Cl)c1O , report the class its Km corresponds to.
Resp: Low

Req: Returns: class label. Input: Nc1ccccc1N
Resp: High

Req: Which bin, given its Km, does O=Cc1cc(O)c(O)c(Cl)c1 occupy?
Resp: Low

----------
I'd be grateful if you could share measured Km for these entries.
Test system: Trametes versicolor

[[record]]
query_smiles = "COc1cc(O)c(Br)c(Cl)c1O"
test_system = "Trametes versicolor"
measured_attribute = "Km"
result = "70 µM"

[[record]]
query_smiles = "COc1c(O)cc(O)c(Br)c1Cl"
test_system = "Trametes versicolor"
measured_attribute = "Km"
result = "70 µM"


Now for a further compound.
Req: // Km lookup, key: Nc1cc(C(=O)O)ccc1O
Resp: 70 µM
